target: αvβ3 (Homo sapiens, UniProt P05106+P06756); assay: 293/b3 cell adhesion assay for αvβ3 function; conditions: 293/b3 cells, adhesion to human vitronectin
readout.type: IC50
Param answer (str): number followed by unit.

# return recorded IC50 for entry CC(C)(C)c1cc(Br)cc([C@H](CC(=O)O)NC(=O)CNC(=O)c2cc(O)cc(NC3=NCC(O)CN3)c2)c1 (stereo partly shown) [Example 1]
800 pM

----------
target: α5β1 (Homo sapiens, UniProt P05556+P08648); construct: K562 cells (American Type Culture Collection, Manassas, Va.) which naturally express high levels of α5β1; endogenous in cells; test: K562 cell adhesion assay for α5β1 function; conditions: K562 cells, adhesion to human plasma fibronectin
Sequence (P08648 42-894 limits assumed): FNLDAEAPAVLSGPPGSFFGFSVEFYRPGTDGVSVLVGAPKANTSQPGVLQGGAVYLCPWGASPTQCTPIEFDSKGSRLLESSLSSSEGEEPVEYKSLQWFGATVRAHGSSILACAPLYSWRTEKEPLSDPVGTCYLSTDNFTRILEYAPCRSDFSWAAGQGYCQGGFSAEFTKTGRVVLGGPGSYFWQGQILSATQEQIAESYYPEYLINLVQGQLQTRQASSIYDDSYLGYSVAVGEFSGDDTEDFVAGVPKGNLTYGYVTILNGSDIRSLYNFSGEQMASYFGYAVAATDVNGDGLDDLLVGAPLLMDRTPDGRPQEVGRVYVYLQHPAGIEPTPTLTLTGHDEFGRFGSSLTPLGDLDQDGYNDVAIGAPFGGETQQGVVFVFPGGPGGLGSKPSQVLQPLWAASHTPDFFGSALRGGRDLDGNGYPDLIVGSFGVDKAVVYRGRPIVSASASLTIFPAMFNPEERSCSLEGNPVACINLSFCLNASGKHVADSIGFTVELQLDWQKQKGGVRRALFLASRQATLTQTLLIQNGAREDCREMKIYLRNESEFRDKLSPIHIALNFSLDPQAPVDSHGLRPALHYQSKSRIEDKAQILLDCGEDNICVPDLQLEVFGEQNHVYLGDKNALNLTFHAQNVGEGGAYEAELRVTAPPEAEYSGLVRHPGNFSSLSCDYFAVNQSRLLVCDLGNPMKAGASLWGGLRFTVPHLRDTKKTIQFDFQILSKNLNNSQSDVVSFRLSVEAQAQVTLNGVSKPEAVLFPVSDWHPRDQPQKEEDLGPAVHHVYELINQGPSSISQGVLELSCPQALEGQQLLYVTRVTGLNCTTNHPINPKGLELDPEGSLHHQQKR
Sequence (P08648 895-1049 partner limits assumed): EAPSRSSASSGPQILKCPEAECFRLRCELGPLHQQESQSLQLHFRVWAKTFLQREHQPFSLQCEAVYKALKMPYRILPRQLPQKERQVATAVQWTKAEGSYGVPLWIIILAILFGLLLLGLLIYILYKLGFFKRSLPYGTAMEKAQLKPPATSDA
Sequence (P05556 21-798): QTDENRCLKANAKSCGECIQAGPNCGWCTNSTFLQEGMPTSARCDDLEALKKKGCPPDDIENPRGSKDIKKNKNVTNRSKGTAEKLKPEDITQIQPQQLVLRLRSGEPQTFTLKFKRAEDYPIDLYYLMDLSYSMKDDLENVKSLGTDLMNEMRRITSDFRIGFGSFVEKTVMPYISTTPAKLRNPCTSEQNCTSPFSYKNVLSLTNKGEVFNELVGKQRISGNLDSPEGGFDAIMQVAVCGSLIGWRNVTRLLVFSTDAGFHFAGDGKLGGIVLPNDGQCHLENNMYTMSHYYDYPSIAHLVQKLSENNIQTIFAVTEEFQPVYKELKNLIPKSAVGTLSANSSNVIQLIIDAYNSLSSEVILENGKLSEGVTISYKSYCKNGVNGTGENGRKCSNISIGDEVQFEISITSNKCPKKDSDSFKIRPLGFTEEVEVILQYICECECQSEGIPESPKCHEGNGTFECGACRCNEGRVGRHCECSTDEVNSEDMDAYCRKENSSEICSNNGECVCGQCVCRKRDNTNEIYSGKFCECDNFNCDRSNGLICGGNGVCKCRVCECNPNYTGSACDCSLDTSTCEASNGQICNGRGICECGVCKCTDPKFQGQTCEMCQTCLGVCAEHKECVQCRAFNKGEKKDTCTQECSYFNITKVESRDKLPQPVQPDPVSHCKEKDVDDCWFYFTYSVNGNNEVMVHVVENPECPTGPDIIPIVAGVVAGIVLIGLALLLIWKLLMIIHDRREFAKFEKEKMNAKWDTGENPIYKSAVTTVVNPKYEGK
readout.type: IC50 (nM)
Kindly answer with a numeric value in nM, unit omitted.

# return recorded IC50 for entry CC(C)(C)c1cc(Br)cc([C@H](CC(=O)O)NC(=O)CNC(=O)c2cc(O)cc(NC3=NCC(O)CN3)c2)c1 (stereo partly shown) [Example 1]
4.2

----------
target: αvβ5 (Homo sapiens, UniProt P06756+P18084); test: 293/b5 cell adhesion assay for αvβ5 function; conditions: 293/b5 cells, adhesion to human vitronectin
Sequence (P06756 31-889 limits assumed): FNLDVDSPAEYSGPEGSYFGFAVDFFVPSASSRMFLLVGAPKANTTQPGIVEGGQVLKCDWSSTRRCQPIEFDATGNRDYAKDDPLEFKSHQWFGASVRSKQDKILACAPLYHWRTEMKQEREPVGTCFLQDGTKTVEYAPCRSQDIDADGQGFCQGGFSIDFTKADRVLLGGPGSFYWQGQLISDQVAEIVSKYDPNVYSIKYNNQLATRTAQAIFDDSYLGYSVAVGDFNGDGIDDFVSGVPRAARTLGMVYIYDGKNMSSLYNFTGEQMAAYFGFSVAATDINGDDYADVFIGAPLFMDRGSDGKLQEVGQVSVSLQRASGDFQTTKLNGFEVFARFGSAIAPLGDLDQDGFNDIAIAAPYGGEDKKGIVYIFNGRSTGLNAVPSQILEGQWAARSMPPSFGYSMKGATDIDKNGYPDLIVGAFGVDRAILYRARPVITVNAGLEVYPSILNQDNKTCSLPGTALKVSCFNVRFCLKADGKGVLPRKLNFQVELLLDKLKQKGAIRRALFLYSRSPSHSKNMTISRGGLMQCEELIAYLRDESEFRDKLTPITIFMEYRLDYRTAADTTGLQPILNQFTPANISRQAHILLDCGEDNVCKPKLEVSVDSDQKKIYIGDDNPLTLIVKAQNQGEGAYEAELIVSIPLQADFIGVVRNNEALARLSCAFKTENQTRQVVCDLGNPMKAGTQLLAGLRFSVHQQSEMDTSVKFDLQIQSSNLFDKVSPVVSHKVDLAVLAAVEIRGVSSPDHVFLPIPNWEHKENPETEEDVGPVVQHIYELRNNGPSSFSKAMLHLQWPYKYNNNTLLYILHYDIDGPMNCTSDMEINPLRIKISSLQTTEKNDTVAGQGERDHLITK
Sequence (P06756 891-1048 partner limits assumed): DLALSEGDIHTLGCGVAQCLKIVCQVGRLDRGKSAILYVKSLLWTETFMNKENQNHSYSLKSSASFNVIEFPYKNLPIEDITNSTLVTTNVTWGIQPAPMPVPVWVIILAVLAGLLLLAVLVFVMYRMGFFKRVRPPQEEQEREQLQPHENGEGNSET
Sequence (P18084 24-799): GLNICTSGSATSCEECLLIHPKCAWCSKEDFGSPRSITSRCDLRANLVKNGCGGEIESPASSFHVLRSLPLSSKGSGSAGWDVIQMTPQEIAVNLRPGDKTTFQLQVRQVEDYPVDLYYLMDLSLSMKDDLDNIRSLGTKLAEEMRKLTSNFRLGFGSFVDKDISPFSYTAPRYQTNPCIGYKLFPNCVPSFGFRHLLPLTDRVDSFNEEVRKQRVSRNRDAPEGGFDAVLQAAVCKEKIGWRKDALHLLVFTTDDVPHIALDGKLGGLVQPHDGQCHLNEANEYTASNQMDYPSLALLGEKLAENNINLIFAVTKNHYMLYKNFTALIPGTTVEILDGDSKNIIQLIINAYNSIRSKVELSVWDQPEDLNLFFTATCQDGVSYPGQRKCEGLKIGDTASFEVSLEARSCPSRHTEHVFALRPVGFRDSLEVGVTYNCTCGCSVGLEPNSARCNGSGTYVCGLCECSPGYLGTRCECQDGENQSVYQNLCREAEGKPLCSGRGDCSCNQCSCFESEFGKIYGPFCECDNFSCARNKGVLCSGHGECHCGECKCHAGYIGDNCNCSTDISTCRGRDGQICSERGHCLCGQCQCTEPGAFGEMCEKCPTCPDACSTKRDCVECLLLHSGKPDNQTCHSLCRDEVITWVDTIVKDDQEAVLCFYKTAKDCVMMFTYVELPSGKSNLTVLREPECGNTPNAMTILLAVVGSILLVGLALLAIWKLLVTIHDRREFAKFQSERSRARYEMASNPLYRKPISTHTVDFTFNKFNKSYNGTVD
readout.type: IC50 (nM)
Kindly answer with a numeric value in nM, unit omitted.

State recorded IC50 with αvβ5 (Homo sapiens, UniProt P06756+P18084), entry CC(C)(C)c1cc(Br)cc([C@H](CC(=O)O)NC(=O)CNC(=O)c2cc(O)cc(NC3=NCC(O)CN3)c2)c1 (stereo partly shown) [Example 1] , no comment.
51.7

----------
molecular target: recombinant human biotinylated integrin αvβ8 (Homo sapiens, UniProt P06756+P26012); construct: biotin (biotinylated heterodimer); experiment: Solid phase receptor assay for αvβ8 function; settings: purified integrin binding to LAP-coated plate
Sequence (P06756 31-889 limits assumed): as the sequence (P06756 31-889 limits assumed) above
Sequence (P06756 891-992 partner limits assumed): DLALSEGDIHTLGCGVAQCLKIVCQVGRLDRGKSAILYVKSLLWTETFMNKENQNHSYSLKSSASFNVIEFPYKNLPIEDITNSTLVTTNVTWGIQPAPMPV
Sequence (P26012 43-684 limits assumed): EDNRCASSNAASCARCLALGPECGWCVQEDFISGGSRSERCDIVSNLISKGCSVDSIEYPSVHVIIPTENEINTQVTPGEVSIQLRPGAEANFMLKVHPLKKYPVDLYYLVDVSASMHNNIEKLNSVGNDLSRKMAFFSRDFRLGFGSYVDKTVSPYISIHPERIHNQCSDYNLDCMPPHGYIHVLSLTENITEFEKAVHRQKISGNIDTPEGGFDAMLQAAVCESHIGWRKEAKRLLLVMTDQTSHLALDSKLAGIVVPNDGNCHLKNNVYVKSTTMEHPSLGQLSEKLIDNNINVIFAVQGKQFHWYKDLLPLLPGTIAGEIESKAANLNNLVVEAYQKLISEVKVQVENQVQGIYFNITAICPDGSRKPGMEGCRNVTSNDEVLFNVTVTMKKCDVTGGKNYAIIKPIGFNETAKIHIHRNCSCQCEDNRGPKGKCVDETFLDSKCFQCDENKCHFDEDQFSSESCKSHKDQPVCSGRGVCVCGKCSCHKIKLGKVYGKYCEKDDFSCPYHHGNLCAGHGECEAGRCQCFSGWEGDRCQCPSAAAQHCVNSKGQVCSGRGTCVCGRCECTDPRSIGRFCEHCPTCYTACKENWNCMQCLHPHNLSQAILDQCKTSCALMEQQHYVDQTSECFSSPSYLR
readout.type: pIC50
Remember the convention: pIC50 equals -log10 of concentration in molar.

# return recorded pIC50 for entry CC(C)(C)c1cc(Br)cc([C@H](CC(=O)O)NC(=O)CNC(=O)c2cc(O)cc(NC3=NCC(O)CN3)c2)c1 (stereo partly shown)
9.64
